experiment: Phase I ascending single oral dose study: pharmacokinetics; assay type: in vivo, human; conditions: human, in vivo, po, single oral dose, range of medians across doses, postdose; read-out: Median tmax
measure: Tmax

[
  {
    "smiles_entry": "COc1cc2ccc(O[C@@H]3C[C@H]4CC[C@@H](C3)N4)cc2oc1=O",
    "value_reported": "2.25 to 5 h"
  }
]

====

assay: Phase I ascending single oral dose study: pharmacokinetics; type: in vivo, human; settings: human, in vivo, po; 0.6 mg; calculated for 1/6 subjects; read-out: mean t½ (converted)

[
  {
    "compound": "COc1cc2ccc(O[C@@H]3C[C@H]4CC[C@@H](C3)N4)cc2oc1=O [IP2015]",
    "readout_unit": "h",
    "half-life": 14.5
  }
]

====

target: norepinephrine transporter (NET) (Homo sapiens); assay: Inhibition of human transporter in stable epithelial cell lines (NET); details: average of two replicates (n=2)
Sequence (P23975 whole entry): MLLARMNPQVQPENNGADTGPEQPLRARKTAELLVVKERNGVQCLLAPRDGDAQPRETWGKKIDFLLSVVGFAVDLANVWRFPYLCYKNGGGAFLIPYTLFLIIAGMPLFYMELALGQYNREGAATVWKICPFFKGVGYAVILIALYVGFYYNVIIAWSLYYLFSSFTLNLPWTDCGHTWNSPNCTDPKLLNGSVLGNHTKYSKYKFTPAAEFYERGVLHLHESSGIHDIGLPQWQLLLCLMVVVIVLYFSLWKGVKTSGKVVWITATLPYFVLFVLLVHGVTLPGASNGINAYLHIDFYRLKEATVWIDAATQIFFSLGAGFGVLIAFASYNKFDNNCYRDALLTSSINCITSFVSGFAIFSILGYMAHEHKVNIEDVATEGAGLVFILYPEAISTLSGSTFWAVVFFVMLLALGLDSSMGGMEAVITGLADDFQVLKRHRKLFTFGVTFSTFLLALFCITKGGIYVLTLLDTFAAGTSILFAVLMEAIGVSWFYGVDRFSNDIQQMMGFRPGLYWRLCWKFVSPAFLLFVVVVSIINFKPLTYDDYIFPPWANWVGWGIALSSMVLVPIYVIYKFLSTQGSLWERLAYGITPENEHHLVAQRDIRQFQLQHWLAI
pIC50: −log10 of the molar value.
measure: pIC50

[
  {
    "smiles_entry": "COc1cc2ccc(O[C@@H]3C[C@H]4CC[C@@H](C3)N4)cc2oc1=O",
    "value_reported": 7.02
  }
]

====

Assay: Phase I ascending single oral dose study: pharmacokinetics
Assay type: in vivo, human
Conditions: human, in vivo, po; 5.4 mg to 16.2 mg doses, range of means; read-out: mean T½
Protocol: Study design. The study was a Phase I, randomised, double-blind, placebo-controlled, ascending single oral dose, safety, tolerability, pharmacokinetic (PK) and pharmacodynamics (PD) study of IP2015 in healthy male subjects. Each subject received one oral dose of IP2015 or matched placebo. […] The doses in the remaining five cohorts were to be determined based on the dose escalation criteria. […] Statistical methods. […] Pharmacokinetic parameter estimates were calculated using noncompartmental methods. […]

[
  {
    "smiles_entry": "COc1cc2ccc(O[C@@H]3C[C@H]4CC[C@@H](C3)N4)cc2oc1=O",
    "half-life": "23.1 to 26.3 h"
  }
]

====

assay: Phase I ascending single oral dose study: pharmacokinetics; format: in vivo, human; settings: human, in vivo, po; 1.8 mg; calculated for 3/6 subjects; read-out: mean t½ (converted)

[
  {
    "smiles_entry": "COc1cc2ccc(O[C@@H]3C[C@H]4CC[C@@H](C3)N4)cc2oc1=O",
    "readout_unit": "h",
    "half-life": 16.1
  }
]
